B1: Protein PTHB1 (Homo sapiens), Q3SYG4 (parent)
chain: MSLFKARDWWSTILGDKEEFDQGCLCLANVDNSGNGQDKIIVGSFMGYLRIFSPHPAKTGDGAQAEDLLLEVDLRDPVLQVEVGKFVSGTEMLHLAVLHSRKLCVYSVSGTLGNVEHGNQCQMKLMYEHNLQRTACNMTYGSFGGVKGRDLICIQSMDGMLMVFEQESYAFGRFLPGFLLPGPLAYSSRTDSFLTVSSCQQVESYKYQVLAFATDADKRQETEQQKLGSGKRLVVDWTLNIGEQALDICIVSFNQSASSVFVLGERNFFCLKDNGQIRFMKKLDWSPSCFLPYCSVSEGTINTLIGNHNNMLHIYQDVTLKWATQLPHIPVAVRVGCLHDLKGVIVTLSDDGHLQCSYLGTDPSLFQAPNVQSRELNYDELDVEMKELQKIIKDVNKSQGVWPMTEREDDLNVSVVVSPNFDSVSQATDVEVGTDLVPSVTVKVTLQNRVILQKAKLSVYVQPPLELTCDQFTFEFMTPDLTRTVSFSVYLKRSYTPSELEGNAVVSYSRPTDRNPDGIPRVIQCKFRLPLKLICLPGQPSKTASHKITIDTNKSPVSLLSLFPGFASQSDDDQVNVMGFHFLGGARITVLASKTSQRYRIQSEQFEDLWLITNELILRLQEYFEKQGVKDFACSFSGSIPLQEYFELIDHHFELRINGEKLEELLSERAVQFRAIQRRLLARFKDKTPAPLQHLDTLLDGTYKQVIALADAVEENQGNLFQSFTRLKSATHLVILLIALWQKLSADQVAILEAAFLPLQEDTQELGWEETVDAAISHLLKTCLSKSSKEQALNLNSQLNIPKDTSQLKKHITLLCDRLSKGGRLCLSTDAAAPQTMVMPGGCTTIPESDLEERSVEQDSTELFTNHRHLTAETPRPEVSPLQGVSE
partner: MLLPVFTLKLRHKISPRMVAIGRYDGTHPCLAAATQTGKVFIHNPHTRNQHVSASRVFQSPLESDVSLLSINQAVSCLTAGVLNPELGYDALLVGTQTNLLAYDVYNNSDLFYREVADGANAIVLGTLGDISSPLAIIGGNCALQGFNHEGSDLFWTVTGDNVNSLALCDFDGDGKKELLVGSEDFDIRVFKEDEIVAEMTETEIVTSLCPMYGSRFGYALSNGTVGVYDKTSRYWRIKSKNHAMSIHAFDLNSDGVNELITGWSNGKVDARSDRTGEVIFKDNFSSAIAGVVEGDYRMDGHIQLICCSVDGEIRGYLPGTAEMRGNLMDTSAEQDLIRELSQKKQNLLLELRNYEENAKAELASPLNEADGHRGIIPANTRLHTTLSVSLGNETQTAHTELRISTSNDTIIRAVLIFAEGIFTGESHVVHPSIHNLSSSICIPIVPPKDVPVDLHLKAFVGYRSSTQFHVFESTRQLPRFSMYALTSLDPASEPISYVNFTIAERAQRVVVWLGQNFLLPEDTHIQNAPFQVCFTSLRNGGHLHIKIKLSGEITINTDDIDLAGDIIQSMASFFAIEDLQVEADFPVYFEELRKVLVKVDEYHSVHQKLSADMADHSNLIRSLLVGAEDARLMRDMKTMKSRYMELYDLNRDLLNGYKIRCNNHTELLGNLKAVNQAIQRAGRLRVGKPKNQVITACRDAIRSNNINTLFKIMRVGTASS

variants of: B1; settings: with bbs2_human BBS2, Q9BXC9
PARAMETER_MEASURED: effect of a mutation on the interaction

# count of solved cases: 4
variant_identifier=L457E parameter_measured="effect of a mutation on the interaction" result="with no effect"
variant_identifier=S568K parameter_measured="effect of a mutation on the interaction" result="with no effect"
variant_identifier=T871A parameter_measured="effect of a mutation on the interaction" result="with no effect"
variant_identifier=G767E parameter_measured="effect of a mutation on the interaction" result="with no effect"

// effect of a mutation on the interaction value for V461E : with no effect

// effect of a mutation on the interaction value for P537A : with no effect

// effect of a mutation on the interaction value for L814E : with no effect

// effect of a mutation on the interaction value for G841E : with no effect

// effect of a mutation on the interaction value for G638K : with no effect

// effect of a mutation on the interaction value for A567E : with no effect

// effect of a mutation on the interaction value for Q672K : with no effect

// effect of a mutation on the interaction value for K542A : with no effect

// effect of a mutation on the interaction value for T865K : with no effect

// effect of a mutation on the interaction value for R678A : with no effect

// effect of a mutation on the interaction value for Q717K : with no effect

// effect of a mutation on the interaction value for Q883E : with no effect

// effect of a mutation on the interaction value for R726K : with no effect

// effect of a mutation on the interaction value for L808K : with no effect

// effect of a mutation on the interaction value for R868A : with no effect
